biological target: human thrombin (Homo sapiens, UniProt P00734)
PARAMETER MEASURED: pKi
For clarity, pKi is expressed as the negative log10 of concentration in mol/L.

Per the records, this compound ( N=C(N)N1CCC(CNC(=O)[C@@H]2CCCN2C(=O)[C@H](N)Cc2ccccc2)CC1.O=C(O)C(F)(F)F.O=C(O)C(F)(F)F ) has pKi equal to 8.35

###

Target chain: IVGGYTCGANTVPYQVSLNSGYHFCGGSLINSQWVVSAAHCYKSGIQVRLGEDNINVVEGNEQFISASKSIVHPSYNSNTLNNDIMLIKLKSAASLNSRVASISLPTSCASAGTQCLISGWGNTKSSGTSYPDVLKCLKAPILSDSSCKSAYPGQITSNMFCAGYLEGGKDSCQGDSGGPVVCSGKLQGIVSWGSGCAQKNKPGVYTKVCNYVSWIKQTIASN
PARAMETER MEASURED: pKi
Note: pKi values are expressed as the negative base-10 logarithm of concentration in M.

Lab book: pKi of N=C(N)N1CCC(CNC(=O)[C@@H]2CCCN2C(=O)[C@H](N)Cc2ccccc2)CC1.O=C(O)C(F)(F)F.O=C(O)C(F)(F)F [Compound 1] noted as 5.71

Lab note: measured pKi of N=C(N)c1ccc(CNC(=O)[C@@H]2CCCN2C(=O)[C@H](N)Cc2ccccc2)cc1 [Compound 2] was 7.82

###

Task for the reader: assign each of the following compounds its reported pKd.
target: bovine β-trypsin (Bos taurus, UniProt P00760); construct: dialyzing a solution of bovine β-trypsin (Sigma Aldrich, product number T8003); purchased Sigma Aldrich T8003; assay: Direct ITC titration, trypsin; format: binding; details: direct titration; Tricine; 3% (v/v) DMSO
Bear in mind: pKd is minus log10 of a mol/L concentration; give just that figure.

Documented pKd of N=C(N)c1ccc(CNC(=O)[C@@H]2CCCN2C(=O)[C@H](N)Cc2ccccc2)cc1 : 7.47

For N=C(N)N1CCC(CNC(=O)[C@@H]2CCCN2C(=O)[C@H](N)Cc2ccccc2)CC1.O=C(O)C(F)(F)F.O=C(O)C(F)(F)F the compound record lists pKd as 5.48
